Just for reference, paper PMC11597202 is where these values come from.

biological target: GSK-3β (Homo sapiens, UniProt P49841); construct: host or cells: Sf9 insect cells (baculovirus); assay: ADP-Glo kinase inhibition assay, GSK-3β; format: biochemical; settings: 10 μM compound; percentage of maximum activity of the DMSO control; mean n = 2; 10 µM ATP; read-out: Residual activity GSK-3β
Sequence (P49841 whole entry): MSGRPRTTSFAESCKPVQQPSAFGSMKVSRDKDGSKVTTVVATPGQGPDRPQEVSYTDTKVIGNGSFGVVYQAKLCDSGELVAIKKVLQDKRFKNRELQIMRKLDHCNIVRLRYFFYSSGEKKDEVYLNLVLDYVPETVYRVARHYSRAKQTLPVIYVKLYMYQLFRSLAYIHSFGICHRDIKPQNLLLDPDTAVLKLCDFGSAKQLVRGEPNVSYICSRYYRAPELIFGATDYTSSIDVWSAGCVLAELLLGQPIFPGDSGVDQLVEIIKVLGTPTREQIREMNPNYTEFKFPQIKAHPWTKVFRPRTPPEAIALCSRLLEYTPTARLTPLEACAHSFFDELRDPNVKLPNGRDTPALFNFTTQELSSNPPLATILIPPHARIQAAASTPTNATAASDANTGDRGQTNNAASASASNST
recorded_metric: remaining activity at 10 µM (%)

| compound | remaining activity at 10 µM [%] |
| --- | --- |
| COC(=N)c1nc2cc3ncn(Cc4ccccc4)c(=O)c3cc2s1 [Compound 6b] | 107 |
| COC(=N)c1nc2cc3ncnc(Nc4ccc(OC)cc4F)c3cc2s1 [Compound 15b] | 104 |
| COC(=N)c1nc2cc3c(Nc4ccc(OC)cc4F)ncnc3cc2s1 [Compound 15a] | 70 |
| COC(=N)c1nc2ccc3c(=O)n(Cc4ccccc4)cnc3c2s1 [Compound 6d] | 105 |
| COC(=N)c1nc2cc3c(=O)n(Cc4ccccc4)cnc3cc2s1 [Compound 6a] | 76 |

I = COC(=N)c1nc2c(ccc3c(=O)n(Cc4ccccc4)cnc32)s1 [Compound 6c]
II = COC(=N)c1nc2ccc3ncn(Cc4ccccc4)c(=O)c3c2s1 [Compound I, reference compound]
Query: Higher remaining activity at 10 µM: I or II ? Give the label of your selection.
Result: I
(I: 91%, II: 23%)

---

target: JAK3 (Homo sapiens, UniProt P52333); construct: host or cells: Sf9 insect cells (baculovirus); assay: ADP-Glo kinase inhibition assay, JAK3; format: biochemical; conditions: 10 μM compound; percentage of maximum activity of the DMSO control; mean n = 2; 10 µM ATP; read-out: Residual activity JAK3
Sequence (P52333 whole entry): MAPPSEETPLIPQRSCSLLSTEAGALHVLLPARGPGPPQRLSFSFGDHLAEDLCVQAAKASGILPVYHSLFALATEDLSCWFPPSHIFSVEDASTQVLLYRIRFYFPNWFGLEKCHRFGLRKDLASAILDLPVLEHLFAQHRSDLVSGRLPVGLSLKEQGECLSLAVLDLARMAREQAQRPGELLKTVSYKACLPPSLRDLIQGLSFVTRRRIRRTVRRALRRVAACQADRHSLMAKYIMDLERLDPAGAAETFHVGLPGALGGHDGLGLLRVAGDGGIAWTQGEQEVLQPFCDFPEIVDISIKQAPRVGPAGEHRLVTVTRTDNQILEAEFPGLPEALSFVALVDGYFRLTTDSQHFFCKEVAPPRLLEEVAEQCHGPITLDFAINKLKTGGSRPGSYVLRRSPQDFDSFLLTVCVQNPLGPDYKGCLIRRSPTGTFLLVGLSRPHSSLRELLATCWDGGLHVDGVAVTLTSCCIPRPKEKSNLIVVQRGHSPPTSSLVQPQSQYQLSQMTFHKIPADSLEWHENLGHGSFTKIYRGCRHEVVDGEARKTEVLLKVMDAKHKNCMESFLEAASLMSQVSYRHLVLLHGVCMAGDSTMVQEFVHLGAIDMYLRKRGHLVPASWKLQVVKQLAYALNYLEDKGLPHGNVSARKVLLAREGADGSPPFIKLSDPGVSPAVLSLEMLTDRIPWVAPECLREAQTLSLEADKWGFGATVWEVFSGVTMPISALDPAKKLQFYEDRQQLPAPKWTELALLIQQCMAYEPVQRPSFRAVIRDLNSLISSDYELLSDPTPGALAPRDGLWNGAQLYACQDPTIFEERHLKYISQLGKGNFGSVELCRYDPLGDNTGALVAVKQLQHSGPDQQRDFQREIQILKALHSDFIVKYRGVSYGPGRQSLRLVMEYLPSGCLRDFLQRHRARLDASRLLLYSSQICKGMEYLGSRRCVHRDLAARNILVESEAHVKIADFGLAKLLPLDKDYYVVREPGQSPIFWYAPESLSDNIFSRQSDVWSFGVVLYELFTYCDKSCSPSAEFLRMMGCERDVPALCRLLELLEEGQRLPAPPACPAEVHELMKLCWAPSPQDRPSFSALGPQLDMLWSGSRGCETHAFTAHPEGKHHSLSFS
recorded_metric: remaining activity at 10 µM (%)

Completed entries (count: 5):
| compound | remaining activity at 10 µM [%] |
| --- | --- |
| COC(=N)c1nc2ccc3ncn(Cc4ccccc4)c(=O)c3c2s1 [Compound I, reference compound] | 52 |
| COC(=N)c1nc2ccc3ncnc(Nc4ccc(OC)cc4F)c3c2s1 [Compound II, reference compound] | 54 |
| COC(=N)c1nc2cc3ncnc(Nc4ccc(OC)cc4F)c3cc2s1 [Compound 15b] | 60 |
| COC(=N)c1nc2c(ccc3c(=O)n(Cc4ccccc4)cnc32)s1 | 44 |
| COC(=N)c1nc2cc3ncn(Cc4ccccc4)c(=O)c3cc2s1 | 73 |

1 = COC(=N)c1nc2cc3c(Nc4ccc(OC)cc4F)ncnc3cc2s1 [Compound 15a]
2 = COC(=N)c1nc2cc3c(=O)n(Cc4ccccc4)cnc3cc2s1
3 = COC(=N)c1nc2ccc3c(=O)n(Cc4ccccc4)cnc3c2s1
Query: // sort entries: remaining activity at 10 µM, high to low Form entry: labels listed in requested order.
Result: 3, 1, 2

---

molecular target: Pim-1 (Homo sapiens); construct: host or cells: bacteria; experiment: ADP-Glo kinase inhibition assay, Pim-1; type: biochemical; details: 1 μM compound; percentage of maximum activity of the DMSO control; mean n = 2; 10 µM ATP; read-out: Residual activity Pim-1
recorded_metric: remaining activity at 1 µM (%)

| compound | remaining activity at 1 µM / % |
| --- | --- |
| COC(=N)c1nc2ccc3c(=O)n(Cc4ccccc4)cnc3c2s1 [Compound 6d] | 92 |
| COC(=N)c1nc2cc3c(Nc4ccc(OC)cc4F)ncnc3cc2s1 [Compound 15a] | 71 |
| COC(=N)c1nc2ccc3ncnc(Nc4ccc(OC)cc4F)c3c2s1 [Compound II, reference compound] | 52 |
| COC(=N)c1nc2cc3c(=O)n(Cc4ccccc4)cnc3cc2s1 [Compound 6a] | 80 |
| COC(=N)c1nc2cc3ncn(Cc4ccccc4)c(=O)c3cc2s1 [Compound 6b] | 90 |
| COC(=N)c1nc2c(ccc3c(=O)n(Cc4ccccc4)cnc32)s1 [Compound 6c] | 74 |
| COC(=N)c1nc2ccc3ncn(Cc4ccccc4)c(=O)c3c2s1 [Compound I, reference compound] | 79 |
| COC(=N)c1nc2cc3ncnc(Nc4ccc(OC)cc4F)c3cc2s1 [Compound 15b] | 74 |

---

target: CDK9/CyclinT (Homo sapiens); construct: host or cells: Sf9 insect cells (baculovirus); assay: ADP-Glo kinase inhibition assay, CDK9/CyclinT; format: biochemical; settings: 1 μM compound; percentage of maximum activity of the DMSO control; mean n = 2; 10 µM ATP; read-out: Residual activity CDK9/CyclinT
Sequence (P50750 whole entry): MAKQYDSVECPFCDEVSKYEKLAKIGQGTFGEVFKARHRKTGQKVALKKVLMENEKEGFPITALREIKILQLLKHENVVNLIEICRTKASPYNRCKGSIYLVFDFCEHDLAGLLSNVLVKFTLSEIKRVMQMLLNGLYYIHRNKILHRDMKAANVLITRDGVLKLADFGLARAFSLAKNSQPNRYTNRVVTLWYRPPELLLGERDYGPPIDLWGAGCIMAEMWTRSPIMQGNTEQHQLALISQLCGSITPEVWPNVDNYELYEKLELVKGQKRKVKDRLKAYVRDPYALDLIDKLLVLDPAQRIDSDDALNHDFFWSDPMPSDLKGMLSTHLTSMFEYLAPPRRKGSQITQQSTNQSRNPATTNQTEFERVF
Sequence (O60563 whole entry partner): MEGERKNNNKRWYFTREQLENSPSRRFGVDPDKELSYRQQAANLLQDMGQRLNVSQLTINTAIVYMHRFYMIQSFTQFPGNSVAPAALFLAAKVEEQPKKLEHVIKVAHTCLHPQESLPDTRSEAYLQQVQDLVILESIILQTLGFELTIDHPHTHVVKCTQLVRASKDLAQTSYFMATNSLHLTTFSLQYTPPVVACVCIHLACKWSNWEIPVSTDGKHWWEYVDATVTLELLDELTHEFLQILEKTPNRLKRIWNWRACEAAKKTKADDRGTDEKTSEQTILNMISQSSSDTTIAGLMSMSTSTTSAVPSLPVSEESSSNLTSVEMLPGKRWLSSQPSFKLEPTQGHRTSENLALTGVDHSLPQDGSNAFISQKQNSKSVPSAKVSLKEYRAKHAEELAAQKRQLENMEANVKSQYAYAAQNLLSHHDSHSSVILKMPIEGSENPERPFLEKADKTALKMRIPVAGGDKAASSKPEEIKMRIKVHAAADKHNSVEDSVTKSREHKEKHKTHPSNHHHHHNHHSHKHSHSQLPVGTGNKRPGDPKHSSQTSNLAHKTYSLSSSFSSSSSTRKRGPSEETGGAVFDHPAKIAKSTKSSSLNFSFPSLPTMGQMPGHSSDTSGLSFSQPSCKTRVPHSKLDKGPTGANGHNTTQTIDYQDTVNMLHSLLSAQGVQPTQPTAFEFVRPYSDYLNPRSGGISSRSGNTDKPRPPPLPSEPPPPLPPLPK
recorded_metric: remaining activity at 1 µM (%)

| molecule | result |
| --- | --- |
| COC(=N)c1nc2c(ccc3c(=O)n(Cc4ccccc4)cnc32)s1 | 105 |
| COC(=N)c1nc2cc3ncn(Cc4ccccc4)c(=O)c3cc2s1 | 107 |
| COC(=N)c1nc2cc3ncnc(Nc4ccc(OC)cc4F)c3cc2s1 [Compound 15b] | 98 |
| COC(=N)c1nc2ccc3ncnc(Nc4ccc(OC)cc4F)c3c2s1 [Compound II, reference compound] | 86 |
| COC(=N)c1nc2cc3c(=O)n(Cc4ccccc4)cnc3cc2s1 | 103 |
| COC(=N)c1nc2cc3c(Nc4ccc(OC)cc4F)ncnc3cc2s1 [Compound 15a] | 101 |
| COC(=N)c1nc2ccc3ncn(Cc4ccccc4)c(=O)c3c2s1 [Compound I, reference compound] | 91 |
| COC(=N)c1nc2ccc3c(=O)n(Cc4ccccc4)cnc3c2s1 | 106 |

---

target: Pim-1 (Homo sapiens, UniProt P11309); construct: host or cells: bacteria; assay: ADP-Glo kinase inhibition assay, Pim-1; assay type: biochemical; conditions: 10 μM compound; percentage of maximum activity of the DMSO control; mean n = 2; 10 µM ATP; read-out: Residual activity Pim-1
Sequence (P11309 whole entry): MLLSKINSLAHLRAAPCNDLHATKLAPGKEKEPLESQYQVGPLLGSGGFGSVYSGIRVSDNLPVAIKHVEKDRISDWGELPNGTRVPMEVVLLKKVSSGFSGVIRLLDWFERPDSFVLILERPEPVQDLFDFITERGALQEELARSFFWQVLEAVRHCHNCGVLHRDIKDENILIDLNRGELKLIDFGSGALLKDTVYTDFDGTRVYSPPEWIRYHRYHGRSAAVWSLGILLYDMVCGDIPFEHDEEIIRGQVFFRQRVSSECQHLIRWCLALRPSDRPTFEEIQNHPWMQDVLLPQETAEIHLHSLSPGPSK
recorded_metric: remaining activity at 10 µM (%)

Completed entries (count: 6):
| compound | experimental_target | result_units | result |
| --- | --- | --- | --- |
| COC(=N)c1nc2cc3ncn(Cc4ccccc4)c(=O)c3cc2s1 | Pim-1 (Homo sapiens, UniProt P11309) | % | 78 |
| COC(=N)c1nc2c(ccc3c(=O)n(Cc4ccccc4)cnc32)s1 | Pim-1 (Homo sapiens, UniProt P11309) | % | 86 |
| COC(=N)c1nc2cc3c(=O)n(Cc4ccccc4)cnc3cc2s1 | Pim-1 (Homo sapiens, UniProt P11309) | % | 133 |
| COC(=N)c1nc2ccc3c(=O)n(Cc4ccccc4)cnc3c2s1 | Pim-1 (Homo sapiens, UniProt P11309) | % | 94 |
| COC(=N)c1nc2ccc3ncnc(Nc4ccc(OC)cc4F)c3c2s1 [Compound II, reference compound] | Pim-1 (Homo sapiens, UniProt P11309) | % | 32 |
| COC(=N)c1nc2cc3ncnc(Nc4ccc(OC)cc4F)c3cc2s1 [Compound 15b] | Pim-1 (Homo sapiens, UniProt P11309) | % | 105 |

a = COC(=N)c1nc2ccc3ncn(Cc4ccccc4)c(=O)c3c2s1 [Compound I, reference compound]
b = COC(=N)c1nc2cc3c(Nc4ccc(OC)cc4F)ncnc3cc2s1 [Compound 15a]
Query: Sorting ascending by remaining activity at 10 µM, which comes first: a or b ? Give the label of your selection.
Result: a
(a: 77%, b: 113%)

---

assay: In vitro cytotoxic assay, MDA-MB-468; type: cell-based; details: human, MDA-MB-468 cells (breast cancer cell line); read-out: In vitro cytotoxic activity IC50, MBA-MB4-68
recorded_metric: IC50 at 48 h (µM)
# output: bare number, implied unit µM

Completed entries (count: 3):
| molecule | recorded_metric | result |
| --- | --- | --- |
| COC(=N)c1nc2ccc3ncn(Cc4ccccc4)c(=O)c3c2s1 [Compound I, reference compound] | IC50 at 48 h | 21 |
| CC(=O)O[C@H]1C(=O)[C@@]2(C)[C@H]([C@H](OC(=O)c3ccccc3)[C@]3(O)C[C@H](OC(=O)[C@H](O)[C@@H](NC(=O)c4ccccc4)c4ccccc4)C(C)=C1C3(C)C)[C@]1(OC(C)=O)CO[C@@H]1C[C@@H]2O [Taxol, reference compound] | IC50 at 48 h | 0.003 |
| COC(=N)c1nc2cc3c(=O)n(Cc4ccccc4)cnc3cc2s1 [Compound 6a] | IC50 at 48 h | 19 |

// below: IC50 at 48 h requested for another molecule
Query: Fill blank: measured IC50 at 48 h of the molecule COC(=N)c1nc2c(ccc3c(=O)n(Cc4ccccc4)cnc32)s1 [Compound 6c] is ____.
Result: 13

---

experiment: In vitro cytotoxic assay, HCT-116; format: cell-based; details: human, HCT-116 cells (colon cancer cell line)
recorded_metric: IC50 at 48 h (µM)
# output: bare number, implied unit µM

| compound | result |
| --- | --- |
| COc1cccc2c1C(=O)c1c(O)c3c(c(O)c1C2=O)C[C@@](O)(C(=O)CO)C[C@@H]3O[C@H]1C[C@H](N)[C@H](O)[C@H](C)O1 [Doxo, Doxorubicin, reference compound] | 0.05 |
| N#Cc1nc2cc3c(=O)n(Cc4ccccc4)cnc3cc2s1 | 7 |
| COC(=N)c1nc2cc3c(Nc4ccc(OC)cc4F)ncnc3cc2s1 [Compound 15a] | 8 |
| COC(=N)c1nc2ccc3c(=O)n(Cc4ccccc4)cnc3c2s1 | 2 |
| N#Cc1nc2ccc3c(=O)n(Cc4ccccc4)cnc3c2s1 | 7 |

Query: Fill blank: measured IC50 at 48 h of the compound N#Cc1nc2c(ccc3c(=O)n(Cc4ccccc4)cnc32)s1 is ____.
Result: 4

Query: Fill blank: measured IC50 at 48 h of the compound COC(=N)c1nc2cc3ncn(Cc4ccccc4)c(=O)c3cc2s1 is ____.
Result: 1

Query: Fill blank: measured IC50 at 48 h of the compound CC(=O)O[C@H]1C(=O)[C@@]2(C)[C@H]([C@H](OC(=O)c3ccccc3)[C@]3(O)C[C@H](OC(=O)[C@H](O)[C@@H](NC(=O)c4ccccc4)c4ccccc4)C(C)=C1C3(C)C)[C@]1(OC(C)=O)CO[C@@H]1C[C@@H]2O [Taxol, reference compound] is ____.
Result: 0.003
